# Test system: Escherichia coli TOP10
# test.description: shrunken log2 fold change of peptide-encoding DNA abundance (4.5 h post-induction vs induction); higher = less antimicrobial activity (less host growth inhibition)
# condition.details: time post-induction: 4.5 h; library: site-saturation at positions 5, 18, 19, 20
We use 0.2 as the dividing line for shrunken log2 fold change: on or above the line is t, below is f.

# example entries with known answers
monomer.sequence | study.target | discrete.label
RRIRKRPPRLPRPRPRPCVGPRP | Escherichia coli TOP10 | t
RRIRARPPRLPRPRPRPAEFPRP | Escherichia coli TOP10 | t
RRIRRRPPRLPRPRPRPQIVPRP | Escherichia coli TOP10 | f
RRIRCRPPRLPRPRPRPPYVPRP | Escherichia coli TOP10 | f
RRIRKRPPRLPRPRPRPTYRPRP | Escherichia coli TOP10 | t
RRIRLRPPRLPRPRPRPRWNPRP | Escherichia coli TOP10 | f
RRIRFRPPRLPRPRPRPMGHPRP | Escherichia coli TOP10 | f
RRIRGRPPRLPRPRPRPWWWPRP | Escherichia coli TOP10 | f
RRIRCRPPRLPRPRPRPRTAPRP | Escherichia coli TOP10 | t
RRIRARPPRLPRPRPRPSYSPRP | Escherichia coli TOP10 | f

Exam item: Check the entry "RRIRCRPPRLPRPRPRPGHCPRP" : does shrunken log2 fold change equal or exceed 0.2?
Marked response: f

Exam item: Check the entry "RRIRFRPPRLPRPRPRPENDPRP" : does shrunken log2 fold change equal or exceed 0.2?
Marked response: f

Exam item: Check the entry "RRIRIRPPRLPRPRPRPLGSPRP" : does shrunken log2 fold change equal or exceed 0.2?
Marked response: f

* * *

Reported shrunken log2 fold change values for a set of sequences
# Test system: Escherichia coli TOP10
# test.description: shrunken log2 fold change of peptide-encoding DNA abundance (4.5 h post-induction vs induction); higher = less antimicrobial activity (less host growth inhibition)
# condition.details: time post-induction: 4.5 h; library: site-saturation at positions 5, 18, 19, 20
I'd appreciate a reply containing only the number, no unit.

Consider the following illustrative entries.
monomer.sequence | study.target | reported
RRIRKRPPRLPRPRPRPAMRPRP | Escherichia coli TOP10 | 1.33
RRIRTRPPRLPRPRPRPVTFPRP | Escherichia coli TOP10 | -0.0266
RRIRDRPPRLPRPRPRPIGTPRP | Escherichia coli TOP10 | 0.208
RRIRARPPRLPRPRPRPLYEPRP | Escherichia coli TOP10 | 0.000796
RRIRMRPPRLPRPRPRPEDEPRP | Escherichia coli TOP10 | 2.06

# ---- query sequence ----
Exam item: Item "RRIRERPPRLPRPRPRPLQAPRP" : provide shrunken log2 fold change
Marked response: 0.167

* * *

# System: Escherichia coli TOP10;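 further: peptides expressed intracellularly from a pBAD plasmid library in pooled LB shake-flask culture, induced with 0.3% L-arabinose, DNA abundance read by NGS, three biological replicates, DESeq2 with apeglm shrinkage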
# test.description: shrunken log2 fold change of peptide-encoding DNA abundance (4.5 h post-induction vs induction); higher = less antimicrobial activity (less host growth inhibition)
# condition.details: time post-induction: 4.5 h; library: site-saturation at positions 5, 18, 19, 20
Reported shrunken log2 fold change values for a set of sequences
I'd appreciate a reply containing only the number, no unit.

monomer.sequence | shrunken log2 fold change
RRIRERPPRLPRPRPRPANSPRP | -0.0581

Exam item: Recall the reported shrunken log2 fold change of "RRIRPRPPRLPRPRPRPLHWPRP" on Escherichia coli TOP10 and write it down.
Marked response: 0.481

Exam item: Recall the reported shrunken log2 fold change of "RRIRDRPPRLPRPRPRPEGVPRP" on Escherichia coli TOP10 and write it down.
Marked response: 0.166

Exam item: Recall the reported shrunken log2 fold change of "RRIRGRPPRLPRPRPRPKNSPRP" on Escherichia coli TOP10 and write it down.
Marked response: 0.252

Exam item: Recall the reported shrunken log2 fold change of "RRIRERPPRLPRPRPRPRNYPRP" on Escherichia coli TOP10 and write it down.
Marked response: -0.491
